Entries and their measured Ki follow.
Target: TYK2 kinase domain (Homo sapiens)
Construct: made in house; host or cells: SF9 insect cells (recombinant baculovirus)
Experiment: TYK2 inhibition assay (Caliper LabChip, isolated kinase domain)
Assay type: biochemical
Conditions: isolated TYK2 kinase domain, 25 uM ATP; values given as 'about'; read-out: Ki values for TYK2 inhibition

# compound, Ki
measured = [
    ("O=C(Nc1ccncc1)c1c(Cl)cc(-c2cc[nH]n2)cc1Cl [Example 11]", "~650 nM"),
    ("O=C(Nc1ccnc(NC(=O)C2CC2)c1F)c1c(Cl)cccc1Cl (single isomer, unassigned) [Example 263]", "~24 nM"),
    ("COCCOc1ccc(Nc2cc(NC(=O)c3c(Cl)cccc3Cl)ccn2)cc1C(F)(F)F [Example 115]", "~570 nM"),
    ("CNc1nc(Nc2cc(NC(=O)c3c(Cl)cccc3Cl)ccn2)cc(C(C)C)n1 [Example 551]", "~3.3 nM"),
    ("O=C(Nc1ccncc1)c1ccccc1Br [Example 271, 2-bromo-N-(pyridine-4-yl)benzamide]", "~810 nM"),
    ("O=C(Nc1ccncc1F)c1c(Cl)cccc1Cl [Example 272]", "~190 nM"),
]

Noted for Cc1cc(Nc2cc(NC(=O)c3c(Cl)cc(C#N)cc3Cl)ccn2)nc(N(CCO)CCO)n1 [Example 415] : its Ki reads ~0.5 nM

Reported Ki for Cc1ccc(Cl)c(C(=O)Nc2ccncc2)c1F [Example 17] was ~360 nM

====

Biological target: TYK2 kinase domain (Homo sapiens, UniProt P29597)
Construct: made in house; host or cells: SF9 insect cells (recombinant baculovirus)
Sequence (P29597 873-1187): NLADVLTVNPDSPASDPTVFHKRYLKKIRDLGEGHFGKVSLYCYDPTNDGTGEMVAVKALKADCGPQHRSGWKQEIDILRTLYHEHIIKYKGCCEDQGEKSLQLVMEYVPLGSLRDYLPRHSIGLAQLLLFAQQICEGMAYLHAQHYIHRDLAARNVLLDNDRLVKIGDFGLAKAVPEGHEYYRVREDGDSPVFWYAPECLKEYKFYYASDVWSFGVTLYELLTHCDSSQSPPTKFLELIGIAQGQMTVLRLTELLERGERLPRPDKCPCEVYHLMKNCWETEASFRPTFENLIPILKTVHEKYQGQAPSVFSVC
Assay: TYK2 inhibition assay (Caliper LabChip, isolated kinase domain)
Assay type: biochemical
Conditions: isolated TYK2 kinase domain, 25 uM ATP; values given as 'about'; read-out: Ki values for TYK2 inhibition
metric: Ki

# compound, Ki
data = [
    ("O=C(Nc1ccncn1)c1c(Cl)cccc1Cl [Example 3, 2,6-dichloro-N-(pyrimidin-4-yl)benzamide]", "~720 nM"),
    ("Cc1cc(Nc2cc(NC(=O)c3c(Cl)cc(CO)cc3Cl)ccn2)nc(NCCO)n1 [Example 416]", "~0.6 nM"),
    ("O=C(Nc1cc(NC(=O)c2c(Cl)cccc2Cl)ccn1)Oc1ccccc1 [Example 350]", "~62 nM"),
    ("O=C(Nc1ccnc(NC(=O)[C@H]2C[C@H]2F)c1)c1c(Cl)cc(CO)cc1Cl (relative stereo) [Example 315]", "~8 nM"),
    ("O=C(Nc1cc(NC(=O)C2CC2)ncc1F)c1c(Cl)cccc1Cl (single isomer, unassigned) [Example 264]", "~10 nM"),
    ("Cc1cc(Nc2nccc(NC(=O)c3c(Cl)cc(C#N)cc3Cl)c2[N+](=O)[O-])nc(C)n1 [Example 238]", "~450 nM"),
]

Reported Ki for Nc1cc(NC(=O)c2c(Cl)cccc2Cl)ccn1 [Example 2] was ~850 nM

Consider O=C(Nc1ccnc(Nc2nccs2)c1)c1c(Cl)cccc1Cl [Example 4] . Its measured Ki is ~380 nM

====

Catalogue of Ki readings, one per entry.
Target: TYK2 kinase domain (Homo sapiens)
Construct: made in house; host or cells: SF9 insect cells (recombinant baculovirus)
Sequence (P29597 873-1187): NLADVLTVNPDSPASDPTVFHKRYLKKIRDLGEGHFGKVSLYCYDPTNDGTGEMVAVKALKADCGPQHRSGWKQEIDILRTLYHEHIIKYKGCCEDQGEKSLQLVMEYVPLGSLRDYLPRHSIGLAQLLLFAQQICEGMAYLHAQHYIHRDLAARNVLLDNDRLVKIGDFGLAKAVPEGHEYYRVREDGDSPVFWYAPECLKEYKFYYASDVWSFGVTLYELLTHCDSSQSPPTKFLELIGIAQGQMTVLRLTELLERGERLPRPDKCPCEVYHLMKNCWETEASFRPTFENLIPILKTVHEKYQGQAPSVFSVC
Test: TYK2 inhibition assay (Caliper LabChip, isolated kinase domain)
Assay type: biochemical
Details: isolated TYK2 kinase domain, 25 uM ATP; values given as 'about'; read-out: Ki values for TYK2 inhibition

Below, 7 molecules whose answers are already recorded.
# molecule, metric, recorded.value
rows = [
    ("CCc1cc(Nc2cc(NC(=O)c3c(Cl)cccc3Cl)ccn2)nc(N(CCO)CCO)n1", "Ki", "~0.6 nM"),
    ("O=C(Nc1ccc(NC(=O)C2CC2)nc1)c1c(Cl)cccc1Cl [reference compound]", "Ki", "> 3500 nM"),
    ("O=C(Nc1ccnc(NC(=O)C2CC2)c1)c1c(Cl)cc(CO)cc1Cl", "Ki", "~5 nM"),
    ("Cc1cc(Nc2cc(NC(=O)c3c(Cl)cc(CNCC4CC4)cc3Cl)ccn2)nc(N2CCOCC2)n1", "Ki", "~3.6 nM"),
    ("O=C(Nc1ccncc1)c1c(Cl)cc(CO)cc1Cl", "Ki", "~220 nM"),
    ("NC[C@H]1C[C@H]1C(=O)Nc1cc(NC(=O)c2c(F)cccc2Cl)ccn1 (relative stereo)", "Ki", "~140 nM"),
    ("CCc1cc(Nc2cc(NC(=O)c3c(Cl)cccc3Cl)ccn2)nc(N2CCC(F)(F)CC2)n1", "Ki", "~80 nM"),
]

From here, focus on the item given below.
Ki reading for `CN(C)C(=O)c1cc(Cl)c(C(=O)Nc2ccnc(NC(=O)C3CC3)c2)c(Cl)c1` : ~27 nM
